For each of the compounds below, state its CC50 at 72 h.
Experiment: Cytotoxicity against human SK-N-SH cells after 72 hrs by MTS assay
Type: cell-based
Answers are plain numbers, in µM.

Before answering, review these 8 worked examples.
Q: I am curious: what CC50 at 72 h value has been reported for CCn1nc(-c2ccc(C)o2)[n+]([O-])c2c(=O)n(C)c(=O)nc1-2 ?
Result: 3.3

Q: Can you check CCCCn1nc(-c2nc3ccccc3s2)nc2c(=O)n(C)c(=O)nc1-2 next?
Result: 8.4

Q: Also check CCn1nc(-c2ccco2)nc2c(=O)n(C)c(=O)nc1-2
Result: 2.8

Q: Repeat for the following compound: CCCCn1nc(-c2ccc[nH]2)[n+]([O-])c2c(=O)n(C)c(=O)nc1-2
Result: 1.5

Q: What do you get for CC(C)CCn1nc(-c2nc3ccccc3s2)nc2c(=O)n(C)c(=O)nc1-2 ?
Result: 10.7

Q: Check CCCCn1nc(-c2ccc(C)s2)nc2c(=O)n(C)c(=O)nc1-2 too.
Result: 18.2

Q: # repeat for CCCCn1nc(-c2ccc(C)o2)nc2c(=O)n(C)c(=O)nc1-2
Result: 5.3

Q: What about this compound? CCCCn1nc(-c2ccc(C)o2)[n+]([O-])c2c(=O)n(C)c(=O)nc1-2
Result: 6.6

For each listed entry, give its CC50 at 72 h.
1. CCn1nc(-c2ccc[nH]2)nc2c(=O)n(C)c(=O)nc1-2
2. CC(C)Cn1nc(-c2nc3ccccc3s2)nc2c(=O)n(C)c(=O)nc1-2
3. CCn1nc(-c2ccc(C)s2)[n+]([O-])c2c(=O)n(C)c(=O)nc1-2
4. Cn1c(=O)nc2n(Cc3ccc(F)cc3)nc(-c3nc4ccccc4s3)nc-2c1=O

Result:
1: 4.3; 2: 3.7; 3: 27.2; 4: 21.3

Could I get CC50 at 72 h for every one of these entries?
1. CCCCn1nc(-c2ncc[nH]2)nc2c(=O)n(C)c(=O)nc1-2
2. CCn1nc(-c2ccc[nH]2)[n+]([O-])c2c(=O)n(C)c(=O)nc1-2

Result:
1. 1.3
2. 1.9

Give CC50 at 72 h for each listed item.
1. CCn1nc(-c2cccs2)nc2c(=O)n(C)c(=O)nc1-2
2. CCn1nc(-c2ccc(C)o2)nc2c(=O)n(C)c(=O)nc1-2
3. CCCCn1nc(-c2ccc(C)s2)[n+]([O-])c2c(=O)n(C)c(=O)nc1-2
4. CCn1nc(-c2ncc[nH]2)nc2c(=O)n(C)c(=O)nc1-2
5. CCCCn1nc(-c2ccc3ccccc3n2)nc2c(=O)n(C)c(=O)nc1-2

Result:
1: 9.9; 2: 8.2; 3: 7.2; 4: 3.6; 5: 4
